- assay_system: AMP-activated protein kinase, AMPK (Homo sapiens) (UniProt P54646+O43741+P54619+Q9UGJ0+Q9Y478+Q13131+Q9UGI9)
- measurement_setup: at 10 µM
attribute_measured: residual activity (%)
Express the result in % but write the number alone.

Return value of residual activity for input c1ccc(-c2n[nH]cc2-c2ccnc3ccccc23)nc1 , no commentary.
81

For the compound c1ccc(-c2n[nH]c3c2oc2ccccc23)cc1 , give its measured residual activity value.
47

Find the measured residual activity of Cc1nc(-c2ccccc2)c(-c2ccncc2)o1 and report it.
114

# return recorded residual activity for entry Cn1nc2c3c(cccc31)C(=O)c1ccccc1-2
85

Provide one value: measured residual activity of O=C1Nc2cc(Br)ccc2/C1=C1/Nc2ccccc2/C1=N\O
10

Read off the recorded residual activity for Nc1n[nH]c2nnc(-c3c(-c4ccccc4)nn4ccccc34)cc12
98

Look up and state reported residual activity for CC[n+]1c(/C=C/N(C)c2ccccc2)n(-c2ccccc2)c2ccc(-c3nc4ccccc4s3)cc21
91

Consider the compound O=C1c2ccccc2-[n+]2ccc3c([nH]c4ccccc43)c21 and give its recorded residual activity.
93

Could you please provide reported residual activity for Oc1n[nH]c2nnc(-c3c(-c4ccccc4)nn4ccccc34)cc12 ? Thanks!
90

Give residual activity for COc1cc2ncnc(Nc3ccc(Oc4ccccc4)cc3)c2cc1OC
144

Give the value of residual activity reported for the following: O=C1NC(=O)c2cc(Nc3ccc(F)cc3)c(Nc3ccc(F)cc3)cc21
66

Consider the compound CC(=O)O/N=C1\C(=C2\C(=O)Nc3cc(Br)ccc32)Nc2ccccc21 and give its recorded residual activity.
11

* * *

- assay_system: Protein kinase C epsilon type (Homo sapiens) (UniProt Q02156)
- Sequence (Q02156 whole entry): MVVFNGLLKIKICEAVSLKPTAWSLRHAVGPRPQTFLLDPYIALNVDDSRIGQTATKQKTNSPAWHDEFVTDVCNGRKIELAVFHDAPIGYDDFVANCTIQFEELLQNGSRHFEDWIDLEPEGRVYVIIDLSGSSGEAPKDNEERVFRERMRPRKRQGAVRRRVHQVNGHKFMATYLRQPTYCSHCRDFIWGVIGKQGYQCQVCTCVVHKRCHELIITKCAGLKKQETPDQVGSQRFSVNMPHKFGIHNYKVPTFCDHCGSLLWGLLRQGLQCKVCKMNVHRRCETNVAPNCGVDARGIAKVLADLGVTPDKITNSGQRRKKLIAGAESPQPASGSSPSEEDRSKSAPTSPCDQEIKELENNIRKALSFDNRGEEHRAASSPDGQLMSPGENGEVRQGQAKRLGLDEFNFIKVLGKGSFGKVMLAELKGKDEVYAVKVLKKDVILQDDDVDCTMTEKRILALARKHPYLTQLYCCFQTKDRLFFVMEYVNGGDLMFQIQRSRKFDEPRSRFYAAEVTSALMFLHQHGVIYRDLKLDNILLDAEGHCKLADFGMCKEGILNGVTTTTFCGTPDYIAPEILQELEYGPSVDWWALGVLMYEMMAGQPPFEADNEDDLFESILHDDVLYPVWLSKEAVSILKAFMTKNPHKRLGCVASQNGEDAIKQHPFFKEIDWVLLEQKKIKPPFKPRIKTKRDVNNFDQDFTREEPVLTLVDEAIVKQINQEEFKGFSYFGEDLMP
- measurement_setup: at 1 µM
attribute_measured: residual activity (%)
Value expressed in %; do not type the unit.

Answer with reported residual activity of O=C1NC(=O)/C(=C/c2ccc3c(c2)OC(F)(F)O3)S1
106

Given the molecule c1ccc2c(-c3ccncc3)c[nH]c2c1 , write its reported residual activity.
73

Fill in residual activity for record O=C1c2ccccc2-[n+]2ccc3c([nH]c4ccccc43)c21
93

Find the measured residual activity of Nc1cccc(-c2cc3c(Oc4cccc(O)c4)ncnc3[nH]2)c1 and report it.
120

Give the value of residual activity reported for the following: COc1cccc(-c2cc(=O)c3ccccc3o2)c1N
106

Input N#CC(C#N)=C(N)/C(C#N)=C/c1ccc(O)cc1 , output reported residual activity.
95

Given Cn1nc2c3c(cccc31)C(=O)c1ccccc1-2 , respond with its residual activity.
106

* * *

Task for the reader: assign each of the following compounds its reported residual activity.
- assay_system: CDK9/cyclin T1 (Homo sapiens) (UniProt O60563+P50750)
- measurement_setup: at 10 µM
Give the value in % but do not write % after it.

Give measured residual activity for O=C1c2ccccc2-[n+]2ccc3c([nH]c4ccccc43)c21 (CDK9/cyclin T1 (Homo sapiens) (UniProt O60563+P50750)).
92

Retrieve residual activity on CDK9/cyclin T1 (Homo sapiens) (UniProt O60563+P50750); query COc1cc2ncnc(Nc3ccc(O)c(Br)c3)c2cc1OC
41

Lab note: CDK9/cyclin T1 (Homo sapiens) (UniProt O60563+P50750) assay, enter residual activity for Nc1n[nH]c2nnc(-c3c(-c4ccccc4)nn4ccccc34)cc12 here
92

* * *

- assay_system: Serine/threonine-protein kinase Nek7 (Homo sapiens) (UniProt Q8TDX7)
- Sequence (Q8TDX7 whole entry, looked up): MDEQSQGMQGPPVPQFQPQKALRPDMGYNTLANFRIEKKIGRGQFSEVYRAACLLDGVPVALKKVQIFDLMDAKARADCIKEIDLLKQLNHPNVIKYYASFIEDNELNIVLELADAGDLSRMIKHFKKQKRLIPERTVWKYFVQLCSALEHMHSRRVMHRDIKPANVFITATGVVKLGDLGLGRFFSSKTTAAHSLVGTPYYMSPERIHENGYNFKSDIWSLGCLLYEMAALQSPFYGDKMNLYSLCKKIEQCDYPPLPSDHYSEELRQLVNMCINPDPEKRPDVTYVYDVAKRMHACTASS
- measurement_setup: at 1 µM
- Description: Millipore: Percentage of residual kinase activity of NEK7 at 1uM relative to control. Control inhibitor: Phosphoric acid* at 0.3uM. Buffer: 8 mM MOPS pH 7.0, 0.2 mM EDTA
Exercise: state measured residual activity for each of the molecules provided.
Only the number, expressed in %, is required.

Supply measured residual activity of Cc1cc(Nc2nc(-c3ccccc3)nc3ccccc23)n[nH]1 in your reply.
105

Let me know recorded residual activity for Cc1cncc2cccc(S(=O)(=O)N3CCCN(C(=O)CN)C[C@H]3C)c12 , thanks.
88

Tell us which residual activity value is on record for CC[n+]1c(/C=C/N(C)c2ccccc2)n(-c2ccccc2)c2ccc(-c3nc4ccccc4s3)cc21
117

Assign residual activity to the following record: O=C1NC(=O)/C(=C/c2ccc3c(c2)OC(F)(F)O3)S1
100

Using known records, supply residual activity for COc1ccc(S(=O)(=O)N(CCO)c2ccccc2CN(C)C/C=C/c2ccc(Cl)cc2)cc1
106

For the molecule O=C1Nc2cc(Br)ccc2/C1=C1/Nc2ccccc2/C1=N\O , give its reported residual activity.
102

Recall and state the measured residual activity for COc1cc2ncnc(Nc3ccc(O)c(Br)c3)c2cc1OC .
99

Respond only with residual activity recorded for Oc1ccc(Nc2nc(-c3ccc(Cl)cc3)cs2)cc1
110

Read the entry Cc1nc(-c2ccccc2)c(-c2ccncc2)o1 and write its reported residual activity.
107

Return the recorded residual activity value; entry: O=C(Nc1cccc(Nc2cc(Nc3cccc(C(F)(F)F)c3)ncn2)c1)C1CC1
95

Kindly indicate its recorded residual activity. Item: NC(=O)c1ccc2[nH]c(-c3ccc(Oc4ccc(Cl)cc4)cc3)nc2c1
102

Quickly give me recorded residual activity for CCN(CC)C(=O)c1ccc(Nc2nc(OCC3CCCCC3)c3nc[nH]c3n2)cc1
98

Answer with reported residual activity of Cn1cnc2cc3c(Nc4cccc(Br)c4)ncnc3cc21
100

Give residual activity for the following molecule: Cc1nc2cc3nc(-c4cccs4)cnc3cc2n1C
102

Answer with the recorded residual activity of Ic1cccc(CSc2nnc(-c3ccncc3)o2)c1 only.
101

Give the measured residual activity for CCN(CC)CCCCN1c2ccccc2Oc2ccc(Cl)cc21
116

Consider the molecule O=C(O)c1ccc2c3c1cccc3c(=O)n1c3ccccc3nc21 and give its recorded residual activity.
114

Recall and state the measured residual activity for COc1ccc(C(=O)Nc2sc3c(c2C(N)=O)CCCC3)cc1OC .
87

Respond only with residual activity recorded for C[C@@H](N)[C@H]1CC[C@H](C(=O)Nc2ccncc2)CC1
111

// fetch residual activity given entry Cc1ccc(S(=O)(=O)/C=C/C#N)cc1
114

For the molecule O=C(Nc1cccc(Nc2nccc(Nc3cccc(C(F)(F)F)c3)n2)c1)C1CC1 , report residual activity.
103

Query residual activity for O=c1cc(-c2cccc3c2Sc2ccccc2S3)oc(N2CCOCC2)c1
109

Name the recorded residual activity of the molecule listed here: CO[C@@H]1[C@H](N(C)C(=O)c2ccccc2)C[C@H]2O[C@]1(C)n1c3ccccc3c3c4c(c5c6ccccc6n2c5c31)C(=O)NC4
91

State its residual activity for this molecule: Nc1ccc2ncnc(NCCc3ccc(Oc4ccccc4)cc3)c2c1
111

Provide one value: measured residual activity of COc1cccc(-c2cc(=O)c3ccccc3o2)c1N
111

Output residual activity of O=C1Nc2ccc(Br)cc2/C1=C\c1cc2c([nH]1)CCCC2
101

For c1ccc2c(-c3ccncc3)c[nH]c2c1 , write its residual activity.
95

Item CCC(=O)Nc1ccc2ncnc(Nc3cccc(Br)c3)c2c1 : provide residual activity
89

Given the molecule c1ccc(-c2n[nH]c3c2oc2ccccc23)cc1 , write its reported residual activity.
94

* * *

Could you please report measured residual activity for the items listed next?
- assay_system: Protein kinase C theta type (Homo sapiens)
- measurement_setup: at 10 µM
Answer in %, number only, no unit symbol.

Enter recorded residual activity with Protein kinase C theta type (Homo sapiens) for Nc1ccc2ncnc(NCCc3ccc(Oc4ccccc4)cc3)c2c1 here.
105

Enter recorded residual activity with Protein kinase C theta type (Homo sapiens) for CCN(CC)CCCCN1c2ccccc2Oc2ccc(Cl)cc21 here.
90

Give residual activity for N#C/C(=C(\N)Sc1ccc(N)cc1)c1ccccc1C(F)(F)F tested on Protein kinase C theta type (Homo sapiens).
77

Give residual activity; test system Protein kinase C theta type (Homo sapiens); compound O=C1Nc2ccccc2/C1=C1/Nc2ccccc2/C1=N\OCCC(O)CO (stereo not given)
29

Report residual activity under test system Protein kinase C theta type (Homo sapiens) for Cc1cc(Nc2nc(-c3ccccc3)nc3ccccc23)n[nH]1 .
26

* * *

- assay_system: Protein kinase C eta type (Homo sapiens) (UniProt P24723)
- Sequence (P24723 whole entry): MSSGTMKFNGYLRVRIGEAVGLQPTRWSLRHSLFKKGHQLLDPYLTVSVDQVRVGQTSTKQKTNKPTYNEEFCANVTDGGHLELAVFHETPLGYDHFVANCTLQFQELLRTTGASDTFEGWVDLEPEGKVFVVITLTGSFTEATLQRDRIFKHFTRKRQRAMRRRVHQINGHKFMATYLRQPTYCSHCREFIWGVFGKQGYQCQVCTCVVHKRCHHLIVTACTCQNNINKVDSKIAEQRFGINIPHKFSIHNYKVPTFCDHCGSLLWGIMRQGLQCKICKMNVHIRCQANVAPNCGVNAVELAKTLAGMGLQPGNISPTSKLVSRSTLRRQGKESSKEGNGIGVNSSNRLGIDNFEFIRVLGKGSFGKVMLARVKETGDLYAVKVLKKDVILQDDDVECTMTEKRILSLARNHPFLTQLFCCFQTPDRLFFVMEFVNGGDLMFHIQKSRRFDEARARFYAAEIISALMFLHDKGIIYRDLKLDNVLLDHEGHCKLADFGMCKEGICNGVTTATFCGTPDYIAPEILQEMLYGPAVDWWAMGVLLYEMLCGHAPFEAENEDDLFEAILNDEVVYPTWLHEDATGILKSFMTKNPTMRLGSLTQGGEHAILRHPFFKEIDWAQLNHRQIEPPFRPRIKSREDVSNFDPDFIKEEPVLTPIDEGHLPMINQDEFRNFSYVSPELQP
- measurement_setup: at 10 µM
Kindly state residual activity for each of the entries shown.
// return the numeric value with its unit appended

Report its residual activity with Protein kinase C eta type (Homo sapiens) (UniProt P24723) as the test system: O=C1NC(=O)c2cc(Nc3ccc(F)cc3)c(Nc3ccc(F)cc3)cc21
80%

Look up and report residual activity, with Protein kinase C eta type (Homo sapiens) (UniProt P24723) as system, for CCC(=O)Nc1ccc2ncnc(Nc3cccc(Br)c3)c2c1
82%

Fill in residual activity for Oc1c2ccccc2c2c3c(cccc13)N=N2 tested with Protein kinase C eta type (Homo sapiens) (UniProt P24723).
82%

Would you please give the reported residual activity of CC(C)n1cnc2c(NCc3ccccc3)nc(NCCCO)nc21 with Protein kinase C eta type (Homo sapiens) (UniProt P24723)?
81%

* * *

Could you please report measured residual activity for the items listed next?
- assay_system: G protein-coupled receptor kinase 6 (Homo sapiens) (UniProt P43250)
- Sequence (P43250 whole entry, looked up): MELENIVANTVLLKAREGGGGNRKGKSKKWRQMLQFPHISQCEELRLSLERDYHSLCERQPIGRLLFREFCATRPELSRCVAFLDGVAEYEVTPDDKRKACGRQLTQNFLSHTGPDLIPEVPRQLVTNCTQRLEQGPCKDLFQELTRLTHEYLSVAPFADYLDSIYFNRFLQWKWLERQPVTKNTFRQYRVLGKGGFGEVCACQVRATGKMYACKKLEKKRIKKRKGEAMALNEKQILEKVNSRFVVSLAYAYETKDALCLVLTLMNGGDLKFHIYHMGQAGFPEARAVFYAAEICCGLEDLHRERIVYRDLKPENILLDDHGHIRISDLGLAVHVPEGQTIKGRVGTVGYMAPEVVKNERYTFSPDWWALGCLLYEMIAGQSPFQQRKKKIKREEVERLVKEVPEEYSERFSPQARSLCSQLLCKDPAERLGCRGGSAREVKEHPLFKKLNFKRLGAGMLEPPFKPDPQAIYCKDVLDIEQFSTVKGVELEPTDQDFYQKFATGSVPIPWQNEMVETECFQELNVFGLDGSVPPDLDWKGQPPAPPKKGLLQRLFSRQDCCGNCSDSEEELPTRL
- measurement_setup: at 10 µM
Give the number; % is assumed, so skip it.

Print G protein-coupled receptor kinase 6 (Homo sapiens) (UniProt P43250) residual activity for Cc1ccc(NC2=CC(=O)c3sc(C)nc3C2=O)cc1 .
85

Specify residual activity for Nc1n[nH]c2nnc(-c3c(-c4ccccc4)nn4ccccc34)cc12 , system G protein-coupled receptor kinase 6 (Homo sapiens) (UniProt P43250).
89

State residual activity (G protein-coupled receptor kinase 6 (Homo sapiens) (UniProt P43250)) of COc1ccc(CNc2nc(N(CCO)CCO)nc3c2ncn3C(C)C)cc1 .
86

Please indicate recorded residual activity of Cc1cc(Nc2nc(-c3ccccc3)nc3ccccc23)n[nH]1 measured with G protein-coupled receptor kinase 6 (Homo sapiens) (UniProt P43250).
65

State, for G protein-coupled receptor kinase 6 (Homo sapiens) (UniProt P43250), measured residual activity of the compound listed here: Cc1cccc(-c2[nH]c(C(C)(C)C)nc2-c2ccc3c(c2)OCO3)n1
87

Answer with residual activity of O=c1c2ccccc2[nH]c(=S)n1CCN1CCC(=C(c2ccc(F)cc2)c2ccc(F)cc2)CC1 measured for G protein-coupled receptor kinase 6 (Homo sapiens) (UniProt P43250).
90

Please respond with reported residual activity (system G protein-coupled receptor kinase 6 (Homo sapiens) (UniProt P43250)) for C[C@@H](N)[C@H]1CC[C@H](C(=O)Nc2ccncc2)CC1 .
106

Report its residual activity with G protein-coupled receptor kinase 6 (Homo sapiens) (UniProt P43250) as the test system: CN(C)CCCn1cc(C2=C(c3c[nH]c4ccccc34)C(=O)NC2=O)c2ccccc21
32

Name the recorded residual activity of COc1cc2ncnc(Nc3ccc(Oc4ccccc4)cc3)c2cc1OC , assay system G protein-coupled receptor kinase 6 (Homo sapiens) (UniProt P43250).
88

Provide residual activity, system G protein-coupled receptor kinase 6 (Homo sapiens) (UniProt P43250), entry Cc1nc2cc3nc(-c4cccs4)cnc3cc2n1C
92

// output residual activity; input CN(C)c1ccc(/C=C2\C(=O)Nc3ccccc32)cc1 ; system G protein-coupled receptor kinase 6 (Homo sapiens) (UniProt P43250)
90

Fill: residual activity (G protein-coupled receptor kinase 6 (Homo sapiens) (UniProt P43250)) for this compound COc1cccc(-c2cc(=O)c3ccccc3o2)c1N
96

Please respond with reported residual activity (system G protein-coupled receptor kinase 6 (Homo sapiens) (UniProt P43250)) for Cc1nc(-c2ccccc2)c(-c2ccncc2)o1 .
97

Specify residual activity for CNc1cc2c(Nc3cccc(Br)c3)ncnc2cn1 , system G protein-coupled receptor kinase 6 (Homo sapiens) (UniProt P43250).
90

Enter recorded residual activity with G protein-coupled receptor kinase 6 (Homo sapiens) (UniProt P43250) for Cc1ccc(S(=O)(=O)/C=C/C#N)cc1 here.
94

# assay system G protein-coupled receptor kinase 6 (Homo sapiens) (UniProt P43250): give residual activity of CC(C)n1cnc2c(NCc3ccccc3)nc(NCCCO)nc21
87

Give measured residual activity for Oc1ccc(Nc2nc(-c3ccc(Cl)cc3)cs2)cc1 (G protein-coupled receptor kinase 6 (Homo sapiens) (UniProt P43250)).
102

Look up G protein-coupled receptor kinase 6 (Homo sapiens) (UniProt P43250) data: residual activity of COc1ccc(OC)c2c(=S)c3ccccc3[nH]c12 , then report it.
80

Please report residual activity with G protein-coupled receptor kinase 6 (Homo sapiens) (UniProt P43250) for item O=C(O)c1ccc2c3c1cccc3c(=O)n1c3ccccc3nc21 .
91

Recall the reported residual activity of CC(=O)c1ccc(N2CCOCC2)cc1O when tested on G protein-coupled receptor kinase 6 (Homo sapiens) (UniProt P43250).
91

State measured residual activity of the compound CC(=O)O/N=C1\C(=C2\C(=O)Nc3cc(Br)ccc32)Nc2ccccc21 with G protein-coupled receptor kinase 6 (Homo sapiens) (UniProt P43250).
88

Report measured residual activity on G protein-coupled receptor kinase 6 (Homo sapiens) (UniProt P43250); entry: CC#CC(=O)Nc1cc2c(Nc3ccc(F)c(Cl)c3)ncnc2cn1
83

Report residual activity from G protein-coupled receptor kinase 6 (Homo sapiens) (UniProt P43250) testing of O=C1NC(=O)c2c1c1c3ccccc3[nH]c1c1[nH]c3cc(Br)ccc3c21
89

Identify measured residual activity obtained with G protein-coupled receptor kinase 6 (Homo sapiens) (UniProt P43250) for O=C(Nc1cccc(Nc2cc(Nc3cccc(C(F)(F)F)c3)ncn2)c1)C1CC1 .
97

Reference for the values: ChEMBL document CHEMBL2218924
